Source of measurements: patent US20200325177A1

Recorded MIC values (S. pneumoniae) are given below.

Provide MIC values for the following items, in order.
1. CC1=C\[C@@H](O)CC(=O)Cc2nc(co2)C(=O)N2CCC[C@@H]2C(=O)O[C@H]([C@@H](C)COC(=O)Nc2ccc(F)cc2)[C@H](C)/C=C/C(=O)NC\C=C\1
2. CC1=C\[C@@H](O)CC(=O)Cc2nc(co2)C(=O)N2CCC[C@@H]2C(=O)O[C@H]([C@H](C)COC(=O)Nc2cnccn2)[C@H](C)/C=C/C(=O)NC\C=C\1
3. CC1=C\[C@@H](O)CC(=O)Cc2nc(co2)C(=O)N2CCC[C@@H]2C(=O)O[C@H]([C@@H](C)COC(=O)Nc2ccc(C(F)(F)F)cc2)[C@H](C)/C=C/C(=O)NC\C=C\1
4. CC1=C\[C@@H](O)CC(=O)Cc2nc(co2)C(=O)N[C@H](Cc2ccc(O)cc2)C(=O)O[C@H](C(C)C)[C@H](C)/C=C/C(=O)NC\C=C\1
5. CC1=C\[C@@H](O)CC(=O)Cc2nc(co2)C(=O)N2CCC[C@@H]2C(=O)O[C@H]([C@H](C)COC(=O)Nc2ccc(C(F)(F)F)cc2)[C@H](C)/C=C/C(=O)NC\C=C\1

Found:
16 µg/mL
64 µg/mL
> 64 µg/mL
64 µg/mL
> 64 µg/mL
